Consider the following binders; for each one, report its Kd.
Tested system: T1, recombinant biotinylated monomeric Fc fusion of human Folate Receptor 1 (huFolR1 ECD-AcTev-Fcknob-Avi tag … (human, UniProt P0DOX5 223-449 = IgG part, biotin on the C-terminal Avi tag))
T1 construct: also called huFolR1-Fc; human FolR1-Fc
Experimental protocol: SPR ProteOn, Fab analyte on immobilized antigen-Fc
Answers are plain numbers, in µM.

Look over these answered cases.
Binder | Unit tag | Kd
15B6 Fab (Fab, V domains shown, bacterial Fab) VH: QVQLVQSGAEVKKPGASVKVSCKASGYTFTSYYMHWVRQAPGQGLEWMGIINPSGGSTSYAQKFQGRVTMTRDTSTSTVYMELSSLRSEDTAVYYCARNYYIGIVPFDYWGQGTLVTVSS VL: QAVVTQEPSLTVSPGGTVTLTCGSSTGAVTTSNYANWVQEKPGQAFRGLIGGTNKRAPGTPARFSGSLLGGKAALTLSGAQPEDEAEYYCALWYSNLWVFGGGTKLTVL | µM | 0.0191
16A3 Fab (Fab, V domains shown, bacterial Fab) VH: QVQLVQSGAEVKKPGASVKVSCKASGYTFTSYYMHWVRQAPGQGLEWMGIINPSGGSTSYAQKFQGRVTMTRDTSTSTVYMELSSLRSEDTAVYYCARNYYAGVTPFDYWGQGTLVTVSS VL: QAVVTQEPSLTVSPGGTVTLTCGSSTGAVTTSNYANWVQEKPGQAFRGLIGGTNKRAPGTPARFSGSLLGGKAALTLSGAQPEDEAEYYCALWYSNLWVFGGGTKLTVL | µM | 0.0217

Next:
# input Looking for the measured Kd of 18D3 Fab (Fab, V domains shown, bacterial Fab) VH: QVQLVQSGAEVKKPGASVKVSCKASGYTFTSYYMHWVRQAPGQGLEWMGIINPSGGSTSYAQKFQGRVTMTRDTSTSTVYMELSSLRSEDTAVYYCARNYYTGGSSAFDYWGQGTLVTVS VL: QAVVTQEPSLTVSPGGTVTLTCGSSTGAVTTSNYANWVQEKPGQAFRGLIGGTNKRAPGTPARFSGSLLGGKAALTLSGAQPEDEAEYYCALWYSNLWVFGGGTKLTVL , can you help?
# output 0.0936
